What mass density was measured for each of the following?
PROTOCOL: xn = mol fraction of the nth substance listed
MEASUREMENT CONDITIONS: 288.15 K; 101 kPa; Liquid; x1 = 0.35
The reply should be a number in kg/m3, with the unit left off.

Requested field: mass density. Item: CCCC(=O)OCCC(C)C [3-methylbutyl butanoate] + CCO 839.37

Requested field: mass density. Item: CCCCCCCC(=O)OCC [ethyl octanoate] + CCO 842.77

Requested field: mass density. Item: CCCCCC(=O)OCC [ethyl hexanoate] + CCO 842.47

Requested field: mass density. Item: CCOC(=O)c1ccccc1 [ethyl benzoate] + CCO 942.79

Requested field: mass density. Item: CCOC(=O)Cc1ccccc1 [ethyl phenylacetate] + CCO 940.14
